Measured viability at 72 h, 3 µM, listed per entry.
Experiment: Viability (MTS) of 293T cells
Type: cell-based, human
Settings: human, 293T cell viability, MTS absorbance 490 as percent of untreated control, single replicate well, 3 uM, replicate well, normalised to own plate
State just the number; it will be interpreted in %.

>  <Smiles record>
CC1(C)CCC(c2ccc(Cl)cc2)=C(CN2CCN(c3ccc(C(=O)NS(=O)(=O)c4ccc(N[C@H](CCN5CCOCC5)CSc5ccccc5)c(S(=O)(=O)C(F)(F)F)c4)cc3)CC2)C1

>  <Units>
%

>  <viability at 72 h, 3 µM>
60.7

$$$$

Next:
// viability at 72 h, 3 µM value for `Cc1ncsc1-c1ccc([C@H](C)NC(=O)[C@@H]2C[C@@H](O)CN2C(=O)[C@@H](NC(=O)CCCCCC(=O)N2CCN(CC[C@H](CSc3ccccc3)Nc3ccc(S(=O)(=O)NC(=O)c4ccc(N5CCN(CC6=C(c7ccc(Cl)cc7)CCC(C)(C)C6)CC5)cc4)cc3S(=O)(=O)C(F)(F)F)CC2)C(C)(C)C)cc1` : 89.4

---

Experiment: Viability (MTS) of Hela cells
Format: cell-based, human
Conditions: human, Hela cells, MTS absorbance 490, Conc 1 uM, read-out: cell viability normalised to control wells (mean of three replicates)
Measure name: viability at 72 h, 1 uM (%)
The reply should contain only the number, in %.

// field: viability at 72 h, 1 uM; key: `CC1(C)CCC(c2ccc(Cl)cc2)=C(CN2CCN(c3ccc(C(=O)NS(=O)(=O)c4ccc(N[C@H](CCN5CCOCC5)CSc5ccccc5)c(S(=O)(=O)C(F)(F)F)c4)cc3)CC2)C1` ; value = 81

The reported value for `Cc1ncsc1-c1ccc([C@H](C)NC(=O)[C@@H]2C[C@@H](O)CN2C(=O)[C@@H](NC(=O)CCCCCC(=O)N2CCN(CC[C@H](CSc3ccccc3)Nc3ccc(S(=O)(=O)NC(=O)c4ccc(N5CCN(CC6=C(c7ccc(Cl)cc7)CCC(C)(C)C6)CC5)cc4)cc3S(=O)(=O)C(F)(F)F)CC2)C(C)(C)C)cc1` in terms of viability at 72 h, 1 uM is 82.9

---

Experiment: Viability (MTS) of 293T cells
Format: cell-based, human
Details: human, 293T cell viability, MTS absorbance 490 as percent of untreated control, single replicate well, 0.111111 uM, replicate well, normalised to own plate
Measure name: viability at 72 h, 0.111111 µM (%)
Please state the figure in %; there is no need to write the unit.

According to the records, this compound Cc1ncsc1-c1ccc([C@H](C)NC(=O)[C@@H]2C[C@@H](O)CN2C(=O)[C@@H](NC(=O)CCCCCC(=O)N2CCN(CC[C@H](CSc3ccccc3)Nc3ccc(S(=O)(=O)NC(=O)c4ccc(N5CCN(CC6=C(c7ccc(Cl)cc7)CCC(C)(C)C6)CC5)cc4)cc3S(=O)(=O)C(F)(F)F)CC2)C(C)(C)C)cc1 [DT2216] displays viability at 72 h, 0.111111 µM of 109

---

System: Kasumi-1 cells
Test: Viability (MTS) of Kasumi-1 AML cells
Assay type: cell-based, human
Details: 72 h; Fig. 7a; read-out: IC50, viability of Kasumi-1 AML cells
Measure name: IC50 (nM)
Report only the number, with the unit nM understood.

Just so you know, measured IC50 for `Cc1c(-c2c(-c3ccc(F)o3)sc3ncnc(O[C@H](Cc4ccccc4OCc4ccnn4CC(F)(F)F)C(=O)O)c23)ccc(OCCN2CCN(C)CC2)c1Cl` came out at 527

---

Target: BCL-2 (Homo sapiens, UniProt P10415)
Construct: endogenous in cells
Sequence (P10415 whole entry): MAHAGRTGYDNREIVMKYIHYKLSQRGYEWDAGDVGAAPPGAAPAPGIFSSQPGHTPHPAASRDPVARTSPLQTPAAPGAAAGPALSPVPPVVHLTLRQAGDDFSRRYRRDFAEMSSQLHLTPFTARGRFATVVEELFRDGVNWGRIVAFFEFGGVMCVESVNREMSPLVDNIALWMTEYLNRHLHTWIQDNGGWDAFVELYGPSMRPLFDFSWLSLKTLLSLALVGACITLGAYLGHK
Test: BCL-2 degradation by immunoblot in 293T cells
Format: cell-based
Conditions: 293T cells, four concentrations, 16 h; Fig. 2b; read-out: BCL-2 DC50
Measure name: DC50

Lab note: Cc1ncsc1-c1ccc([C@H](C)NC(=O)[C@@H]2C[C@@H](O)CN2C(=O)[C@@H](NC(=O)CCCCCCCCC(=O)N2CCN(CC3(C)CCC(c4ccc(Cl)cc4)=C(CN4CCN(c5ccc(C(=O)NS(=O)(=O)c6ccc(N[C@H](CCN7CCOCC7)CSc7ccccc7)c(S(=O)(=O)C(F)(F)F)c6)cc5)CC4)C3)CC2)C(C)(C)C)cc1 (stereo partly shown) gave DC50 of 355 nM

---

Experiment: Viability (MTS) of Hela cells
Assay type: cell-based, human
Conditions: human, Hela cells, MTS absorbance 490, Conc 0.037037 uM, read-out: cell viability normalised to control wells (single replicate)
Measure name: viability at 72 h, 0.037037 uM (%)
Just the number in %, nothing appended.

# compound CC1(C)CCC(c2ccc(Cl)cc2)=C(CN2CCN(c3ccc(C(=O)NS(=O)(=O)c4ccc(N[C@H](CCN5CCOCC5)CSc5ccccc5)c(S(=O)(=O)C(F)(F)F)c4)cc3)CC2)C1 [ABT263, navitoclax] ; its viability at 72 h, 0.037037 uM = 103

Reported viability at 72 h, 0.037037 uM for Cc1ncsc1-c1ccc([C@H](C)NC(=O)[C@@H]2C[C@@H](O)CN2C(=O)[C@@H](NC(=O)CCCCCC(=O)N2CCN(CC[C@H](CSc3ccccc3)Nc3ccc(S(=O)(=O)NC(=O)c4ccc(N5CCN(CC6=C(c7ccc(Cl)cc7)CCC(C)(C)C6)CC5)cc4)cc3S(=O)(=O)C(F)(F)F)CC2)C(C)(C)C)cc1 [DT2216] was 89.4

---

Test: Viability (MTS) of 293T cells
Format: cell-based, human
Conditions: human
Measure name: viability at 72 h, 0.00411523 µM (%)
Quick note: give the figure in %, leave out the unit.

Reported viability at 72 h, 0.00411523 µM of `CC1(C)CCC(c2ccc(Cl)cc2)=C(CN2CCN(c3ccc(C(=O)NS(=O)(=O)c4ccc(N[C@H](CCN5CCOCC5)CSc5ccccc5)c(S(=O)(=O)C(F)(F)F)c4)cc3)CC2)C1` : 94.4

viability at 72 h, 0.00411523 µM reported for this compound `Cc1ncsc1-c1ccc([C@H](C)NC(=O)[C@@H]2C[C@@H](O)CN2C(=O)[C@@H](NC(=O)CCCCCC(=O)N2CCN(CC[C@H](CSc3ccccc3)Nc3ccc(S(=O)(=O)NC(=O)c4ccc(N5CCN(CC6=C(c7ccc(Cl)cc7)CCC(C)(C)C6)CC5)cc4)cc3S(=O)(=O)C(F)(F)F)CC2)C(C)(C)C)cc1` : 104
